All values here come from the RNAGym collection of RNA variant scans (doi:10.7554/elife.80360).

B1: CPEB3 Ribozyme (parent)
chain: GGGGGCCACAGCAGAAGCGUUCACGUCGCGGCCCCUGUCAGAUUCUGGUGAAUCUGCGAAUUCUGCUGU

variants of: B1; experiment: self-cleavage, relative activity (ratio to wild type); higher = more cleavage; co-transcriptional
Hi all, reminder that labels come from self-cleavage, split as band A (below 0.4), band B (0.4 to below 0.8), band C (0.8 or more)

For A51G G68A , which self-cleavage bin applies?
band C

For U49C A60C , which self-cleavage bin applies?
band A

For A23G C24G , which self-cleavage bin applies?
band A

For G19C G31A , which self-cleavage bin applies?
band A

For A60G G68U , which self-cleavage bin applies?
band C

For G41C A60G , which self-cleavage bin applies?
band A

For C39G U64C , which self-cleavage bin applies?
band B

For A13C G56U , which self-cleavage bin applies?
band B

For U64C G68C , which self-cleavage bin applies?
band C
